Assignment: determine reported Ki for the given compounds.
# Tested system: rat VAChT (Rattus norvegicus)
# Sequence (Q62666 1-530): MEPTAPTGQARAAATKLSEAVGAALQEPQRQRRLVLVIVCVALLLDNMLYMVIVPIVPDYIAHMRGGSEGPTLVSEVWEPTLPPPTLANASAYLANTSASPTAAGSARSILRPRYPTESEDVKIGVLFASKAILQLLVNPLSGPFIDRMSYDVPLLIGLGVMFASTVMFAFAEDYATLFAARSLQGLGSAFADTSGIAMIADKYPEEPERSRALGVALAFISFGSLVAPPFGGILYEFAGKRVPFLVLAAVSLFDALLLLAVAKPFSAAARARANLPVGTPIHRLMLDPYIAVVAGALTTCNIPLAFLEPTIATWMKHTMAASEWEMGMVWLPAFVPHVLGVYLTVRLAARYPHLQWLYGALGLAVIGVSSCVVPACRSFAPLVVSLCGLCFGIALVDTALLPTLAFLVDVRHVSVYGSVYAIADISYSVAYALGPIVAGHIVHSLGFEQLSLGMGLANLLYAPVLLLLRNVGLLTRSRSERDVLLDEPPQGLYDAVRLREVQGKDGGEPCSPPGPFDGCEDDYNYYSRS
# Run description: Competition binding, displacement of [3H]vesamicol from rat VAChT
# Condition summary: displacement of [3H]vesamicol; rat VAChT expressed in P12 cells; read-out: ratVAChT Ki
Give your result in nM as a bare value.

Prompt: State the recorded Ki for this entry: "FC(F)(F)c1cccc(N2CCN(CC3CCCC3)CC2)c1"
Completion: 6680

Prompt: Can you check Cc1ccc(N2CCN(C3CCC(C)C3)CC2)cc1 (stereo not shown) next?
Completion: 411

Prompt: Can you check Cc1ccc(N2CCN(CC3CC4C=CC3C4)CC2)cc1 (stereo not shown) next?
Completion: 159

Prompt: Can you check Cc1ccc(N2CCN(CC3CC=CCC3)CC2)cc1 (stereo not shown) next?
Completion: 208

---

# Test system: C. elegans L3 larvae
# Run description: C. elegans L3 larvae abnormal locomotory behaviour on solid agar
# Condition summary: 15 uM; 1 h exposure; solid agar MYOB + E. coli OP50; mean of 4 replicates
Measurement name: % C. elegans L3 larvae any phene 1 h (conc.)
Write the figure, then the unit, nothing else.

Prompt: State the recorded % C. elegans L3 larvae any phene 1 h (conc.) for this entry: "O=C(C1CCC1)N1CCN(c2ccc(F)cc2)CC1"
Completion: 10.0%

Prompt: Can you check Cc1ccc(N2CCN(CC3CC=CCC3)CC2)cc1 (stereo not shown) next?
Completion: 96.7%

Prompt: Can you check Cc1ccc(N2CCN(CC3CC4C=CC3C4)CC2)cc1 (stereo not shown) next?
Completion: 100.0%

Prompt: Can you check "Cc1cc(N2CCN(CC3CCCCC3)CC2)ccc1[N+](=O)[O-]" next?
Completion: 20.8%

Prompt: Can you check "c1cc(N2CCN(CC3CCCCC3)CC2)ccn1" next?
Completion: 10.8%

Prompt: Can you check "O=[N+]([O-])c1ccc(CN2CCN(C3CCCC3)CC2)cc1" next?
Completion: 2.5%

Prompt: Can you check O[C@@H]1CCCC[C@H]1N1CCC(c2ccccc2)CC1 (racemic) [vesamicol, reference compound] next?
Completion: 0.0%

Prompt: Can you check "FC(F)(F)c1cccc(N2CCN(CC3CCCC3)CC2)c1" next?
Completion: 94.2%

Prompt: Can you check "O=C(c1ccc([N+](=O)[O-])cc1)N1CCN(C2CCCC2)CC1" next?
Completion: 14.2%

Prompt: Can you check "FC(F)(F)c1cccc(N2CCN(C3CCCCCC3)CC2)c1" next?
Completion: 100.0%

Prompt: Can you check CC1CCC(N2CCN(c3cccc(Cl)c3)CC2)C1 (stereo not shown) next?
Completion: 100.0%

Prompt: Can you check Cc1ccc(N2CCN(C3CCC(C)C3)CC2)cc1 (stereo not shown) next?
Completion: 98.3%

Prompt: Can you check "O=C(C1CCCCC1)N1CCN(c2ccc([N+](=O)[O-])cc2)CC1" next?
Completion: 0.8%

Prompt: Can you check FC(F)(F)c1cccc(N2CCN(CC3CC4C=CC3C4)CC2)c1 (stereo not shown) next?
Completion: 81.7%

Prompt: Can you check "O=[N+]([O-])c1cccc(CN2CCN(C3CCCCC3)CC2)c1" next?
Completion: 0.0%

Prompt: Can you check "Cc1cc([N+](=O)[O-])ccc1N1CCN(CC2CCCCC2)CC1" next?
Completion: 33.3%

Prompt: Can you check "CCN1CCN(CC2CCCCC2)CC1" next?
Completion: 6.7%

Prompt: Can you check "FC(F)(F)c1cccc(N2CCN(CC3CCCCC3)CC2)c1" next?
Completion: 65.0%

Prompt: Can you check "O=C(C1CCCC1)N1CCN(c2ccc([N+](=O)[O-])cc2)CC1" next?
Completion: 0.0%

Prompt: Can you check "c1cc(N2CCN(CC3CCC3)CC2)ccn1" next?
Completion: 21.7%

Prompt: Can you check "FC(F)(F)c1cccc(N2CCN(C3CCCCCCC3)CC2)c1" next?
Completion: 70.0%

Prompt: Can you check "Fc1ccccc1N1CCN(C2CCCCCC2)CC1" next?
Completion: 69.2%
